- Test system: ATP;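 also: ATP exposure 15 min at 22 °C before imaging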
- assay.details: switch fluorescence ratio, 500 uM ATP over buffer (Cy3 cluster intensity, sum of 5 cycles each) (fold (ratio)); higher = stronger signal-on switching upon ATP binding; sequences stand for … in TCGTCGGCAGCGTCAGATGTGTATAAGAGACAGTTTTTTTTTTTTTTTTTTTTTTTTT…TC
- setup.conditions: aptamer strand: ATP DNA aptamer (quencher-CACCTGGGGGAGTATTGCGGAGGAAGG + anchor), 100 nM annealed; ATP concentration: 500 uM
property.label: switch fluorescence ratio
Numbers only.

Reference set, count: 2
>  <input.sequence>
AAGGTACAAG

>  <measured.on>
ATP;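 also: ATP exposure 15 min at 22 °C before imaging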

>  <switch fluorescence ratio>
1.06

$$$$
>  <input.sequence>
CTAGGAGTTT

>  <measured.on>
ATP;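 also: ATP exposure 15 min at 22 °C before imaging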

>  <switch fluorescence ratio>
0.999

$$$$

Would you mind listing switch fluorescence ratio for each of the following sequences?
1. AGGTTACAAT
2. TCGGGAGAAG
3. CATAGGGCTT
4. AAGAATATTT

Marked response:
[1.04, 1.01, 0.963, 1.01]

Would you mind listing switch fluorescence ratio for each of the following sequences?
1. TGAAATAGGG
2. GGGGGTTCTA

Marked response:
1. 1.03
2. 1.02

Would you mind listing switch fluorescence ratio for each of the following sequences?
1. CAGGAGAGCG
2. GAGTTTGTAT
3. TTAAAATTCT
4. TTAAGGCTTT
5. GAGGGGCTTC
6. CTTGTTAGCG
7. CTAAAGTACT

Marked response:
1. 0.993
2. 0.961
3. 1.04
4. 0.984
5. 1
6. 0.981
7. 1.11

Would you mind listing switch fluorescence ratio for each of the following sequences?
1. ACTTCAAGGG
2. CTTTAGGTGG
3. TGCGACAGGG
4. ATAAGGCCTG
5. AAAAAGGTGG

Marked response:
1.26
1.03
0.988
1.03
1.06
